assayed_target: Serotonin (5HT) reuptake (Rattus norvegicus, UniProt P31652)
Construct: synaptosomes are freshly isolated from areas of rat brain; from tissue; host or cells: rat brain synaptosomes (P2 fraction)
Sequence (P31652 whole entry): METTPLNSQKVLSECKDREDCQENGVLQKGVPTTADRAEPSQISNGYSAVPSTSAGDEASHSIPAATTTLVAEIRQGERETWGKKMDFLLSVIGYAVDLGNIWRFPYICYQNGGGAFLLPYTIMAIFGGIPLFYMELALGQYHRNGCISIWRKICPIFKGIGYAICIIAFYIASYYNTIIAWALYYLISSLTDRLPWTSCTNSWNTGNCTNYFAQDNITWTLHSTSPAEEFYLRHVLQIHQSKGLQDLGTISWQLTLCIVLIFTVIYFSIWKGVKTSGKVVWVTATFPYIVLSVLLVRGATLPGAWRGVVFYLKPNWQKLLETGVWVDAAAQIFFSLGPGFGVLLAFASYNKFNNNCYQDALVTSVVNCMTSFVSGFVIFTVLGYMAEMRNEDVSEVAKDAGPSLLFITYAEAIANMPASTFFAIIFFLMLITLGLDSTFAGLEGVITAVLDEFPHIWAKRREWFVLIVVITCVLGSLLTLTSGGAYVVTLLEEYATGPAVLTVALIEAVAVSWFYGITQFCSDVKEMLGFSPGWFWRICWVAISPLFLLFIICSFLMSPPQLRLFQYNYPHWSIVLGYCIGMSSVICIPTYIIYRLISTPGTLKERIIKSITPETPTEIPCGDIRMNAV
test_description: Serotonin (5HT) reuptake inhibition in rat brain synaptosomes (P2 fraction)
Format: biochemical
experimental_conditions: read-out: Serotonin reuptake, % inhibition [10 μM]
Counter-ions that a name gives are not always drawn.
Assign class by inhibition at 10 µM: not lower than 80% means True; lower than 80% means False.

compound	assayed_target	group_label
CN(C)C(c1ccccc1)C1CCC(NC(=O)Nc2cccc(Br)c2)CC1 (stereo not drawn) [compound 77, hydrochloride]	Serotonin (5HT) reuptake (Rattus norvegicus, UniProt P31652)	True
CN(C)C(c1cccs1)C1CCC(CO)CC1 (stereo not drawn)	Serotonin (5HT) reuptake (Rattus norvegicus, UniProt P31652)	False
CN(C)C(c1ccc(F)cc1)C1CCC(CC=O)CC1 (stereo not drawn)	Serotonin (5HT) reuptake (Rattus norvegicus, UniProt P31652)	True
CN(C)C(c1cccc(F)c1)C1CCC(CC=O)CC1 (stereo not drawn)	Serotonin (5HT) reuptake (Rattus norvegicus, UniProt P31652)	True
CN(C)C(c1ccccc1)C1CCC(NC(=O)Nc2ccc(F)cc2F)CC1 (stereo not drawn) [compound 74, hydrochloride]	Serotonin (5HT) reuptake (Rattus norvegicus, UniProt P31652)	True

Input line: Test whether the compound CN(C)C(c1ccccc1)C1CCC(CO)CC1 (stereo not drawn) records inhibition at 10 µM of 80% or higher.
Output line: True

Input line: Test whether the compound CN(C)C(c1ccccc1)C1CCC(Nc2ccccc2)CC1 (stereo not drawn) [compound 92, hydrochloride] records inhibition at 10 µM of 80% or higher.
Output line: False

Input line: Test whether the compound O=C(C=C1CCC(C(Cc2ccccc2)N2CCCC2)CC1)NCc1ccccn1 (stereo not drawn) records inhibition at 10 µM of 80% or higher.
Output line: False
